# TGI per record follows
Test system: MCF7 breast
method.description: NCI tumour cell line growth inhibition, 48 h

Below, each entry is followed by its recorded TGI result.
[
  {
    "compound": "O=C1SC(SCc2ccccc2)=NC12CC2c1ccccc1 (stereo not given)",
    "TGI": "40.1 µM"
  },
  {
    "compound": "COC(=O)c1cc2oc(/C=C3/SC(=S)N(NC(C)=O)C3=O)cc2n1C",
    "TGI": "> 100 µM"
  },
  {
    "compound": "COC(=O)[C@]12CC[C@@H](C)[C@H](C)[C@@H]1C1=CC[C@@H]3[C@@]4(C)C[C@@H](O)[C@H](O)[C@@](C)(CO)[C@@H]4[C@H](O)C[C@@]3(C)[C@]1(C)CC2",
    "TGI": "41 µM"
  },
  {
    "compound": "NC(Cc1ccccc1)C(=O)NC(Cc1ccccc1)NC(=O)C(Cc1c[nH]c2ccccc12)C(=O)O (stereo not given)",
    "TGI": "> 100 µM"
  }
]

# compound Cc1ccc(C(=O)OC(C(=O)O)C(OC(=O)c2ccc(C)cc2)C(=O)O)cc1 (stereo not given) (tested in a mixture with another compound) ; its TGI = 11.8 µM

# compound COC(=O)c1cccc(C)c1C1CN=NC12Cc1cc(C)cc(C)c1C2=O (stereo not given) ; its TGI = > 100 µM

# compound `NC(N)=NS(=O)(=O)c1ccc(N=Nc2c(O)c(C(=O)O)cc3ccccc23)cc1` ; its TGI = > 100 µM

# compound `O=C1/C(=C/c2ccco2)NC(=S)N1CN1CCCCC1` ; its TGI = > 100 µM

# compound `CN(C)c1ccc(/C=N/NC(=S)Nc2ccccc2)cc1` ; its TGI = > 100 µM

# compound `CC(C)[C@@H]1NC(=O)[C@]2(C)CSC(=N2)c2ccnc(c2)CNC(=O)C[C@@H](/C=C/CCS)OC1=O` ; its TGI = > 100 µM

# compound `COc1ccccc1CC(=O)C(O)(C(F)(F)F)C(F)(F)F` ; its TGI = > 100 µM

# compound `NC(=S)N/N=C\c1nccc2c(C(F)(F)F)cccc12` ; its TGI = 13.3 µM

# compound Cc1cn(C2OC(CO[Si](C)(C)C(C)(C)C)C(N(C)O[Si](C)(C)C(C)(C)C)C2[Se]c2ccccc2)c(=O)[nH]c1=O (stereo not given) ; its TGI = 25.4 µM

# compound `COc1ccc(CN2C(=O)C(Cl)=C(Nc3cccc(C(F)(F)F)c3)C2=O)cc1` ; its TGI = 17.2 µM

# compound O=C1OCC2=C1C(c1cccc(Br)c1)c1cc3c(cc1N2CCO)OCCO3 (stereo not given) ; its TGI = > 50 µM

# compound `CC(C)(CN1CCCCC1)C(/C=C/c1ccc(Cl)cc1)=N\NC(=O)N/N=C(/C=C/c1ccc(Cl)cc1)C(C)(C)CN1CCCCC1` ; its TGI = > 35.3 µM

# compound `c1ccc(Nc2ncc(-c3ccccc3)o2)cc1` ; its TGI = > 25 µM

# compound `N#CSC#CCCC#CSC#N` ; its TGI = 48.2 µM

# compound `CCOC(=O)c1nnn(CCCCO)c1C(=O)OCC` ; its TGI = > 100 µM

# compound `CCOC(=O)CCCSCCCC(=O)CCCSCCCC(=O)OCC` ; its TGI = > 100 µM
